Molecular target: T1, RHPN1, Q8TCX5
T1 sequence (Q8TCX5 508-602, limits assumed, looked up): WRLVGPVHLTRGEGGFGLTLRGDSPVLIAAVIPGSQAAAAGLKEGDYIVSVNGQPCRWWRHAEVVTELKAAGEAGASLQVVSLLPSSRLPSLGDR
Assay: holdup assay
Design: key: below the threshold = too weak to quantify, mostly under pKd 3.1 to 4
Conditions: plain residues with an end cap or a label only (N-terminal biotin on a linker: ado-ado)
Value kind: pKd

Binder: GSQSQVETEA [FKBP4, Q02790]
pKd: 3.77
--
Binder: VISSDDLTEL [CAPN6, Q9Y6Q1]
pKd: 4.5
--
Binder: ADEMICITTL [CACNA1D, Q01668]
pKd: 5.05
--
Binder: PSVYSRSQYV [CLDN8, P56748]
pKd: below the threshold
--
Binder: EKPIDSETKM [SLC1A3, P43003]
pKd: 3.55
--
Binder: RGKNRRQSIF [CDK18, Q07002]
pKd: 3.58
--
Binder: VKQYADVEGF [HNRNPK, P61978;P61978-2]
pKd: below the threshold
--
Binder: QKASRNESTF [POLR1D, P0DPB6]
pKd: below the threshold

Provide reported pKd for each item, in the same order as listed.
1. HLSTRQGTCV [ATRNL1, Q5VV63]
2. PGKKPEDSRV [SLCO2B1, O94956]
3. SQDPKKPSRV [CBY2, Q8NA61]
4. EPAKETTTNV [SLC2A3, P11169]
5. EAVTVESTSL [SLC22A11, Q9NSA0]
6. QQGLLPHSSC [TYRO3, Q06418]

[out]
3.65
3.85
below the threshold
4.35
4.86
below the threshold
